assay: acute toxicity following single oral administration to mice; conditions: mouse, in vivo
measurement type: LD50

Name the recorded LD50 of the compound listed here: CCOC(=O)c1ncn2c1[C@@H]1CCCN1C(=O)c1ccccc1-2 [Example 30]
1250 to 2500 mg/kg

Name the recorded LD50 of the compound listed here: CN1Cc2c(C#N)ncn2-c2ccccc2C1=O [Example 18]
1250 mg/kg

Name the recorded LD50 of the compound listed here: CCOC(=O)c1ncn2c1C1C=CCN1C(=O)c1c(F)cccc1-2 (stereo not shown) [Example 11]
500 to 1000 mg/kg

Name the recorded LD50 of the compound listed here: COC(=O)c1ncn2c1[C@@H]1CCCN1C(=O)c1ccccc1-2 [Example 31]
2000 to 4000 mg/kg
